Each recorded value in this set is attributed to ChEMBL document CHEMBL1132363.

Assignment: determine reported EC50 for the given compounds.
- Protocol: The compound was tested in vitro for the anti-HIV activity against peripheral blood mononuclear (PBM)cells
- Type: functional
- Condition set: Homo sapiens

Please review the entries below; each comes with its answer.
Compound	Test result
Nc1ncnc2c1ncn2C1CCC(CO)C1 (stereo not given)	27 µM
Nc1nc(O)c2ncn([C@@H]3C=C[C@H](CO)C3)c2n1	> 200 µM
COC1O[C@H]2[C@H](COC(C)(C)C)C[C@H](n3cnc4c(Cl)ncnc43)[C@H]2O1 (stereo not given in full)	> 100 µM
Nc1ccn([C@@H]2C=C[C@H](CO)C2)c(=O)n1	38.8 µM
O=c1ccn([C@@H]2C=C[C@H](CO)C2)c(=O)[nH]1	> 100 µM

List EC50 for every entry below, keeping the order given.
1. Cc1cn(C2CCC(CO)C2)c(=O)[nH]c1=O (stereo not given)
2. Cc1cn([C@@H]2C=C[C@H](CO)C2)c(=O)[nH]c1=O
3. Nc1ncnc2c1ncn2[C@@H]1C=C[C@H](CO)C1

1. > 100 µM
2. > 100 µM
3. 2.4 µM

List EC50 for every entry below, keeping the order given.
1. OC[C@H]1C=C[C@@H](n2cnc3c(O)ncnc32)C1
2. O=c1ccn(C2CCC(CO)C2)c(=O)[nH]1 (stereo not given)

1: > 100 µM; 2: > 100 µM
